All values here come from the supplement of paper PMC13380429.

- Tested on: U2OS
- PROCEDURE SUMMARY: drug sensitivity score (DSS) for viability; higher = more toxic; extreme values may be limits of the assay
- MEASUREMENT PARAMETERS: 72 h
PROPERTY MEASURED: drug sensitivity score
Give only the figure.

> print(dat)
                                   compound  tested.system  numeric.value
1  COc1cc(NS(C)(=O)=O)ccc1Nc1c2ccccc2nc2ccccc12           U2OS            3.9

Problem: Please give the measured drug sensitivity score for this compound: N#CC(C#N)=Cc1ccc(O)c(O)c1
Solution: 0

Problem: Given the entry CC(=O)Oc1c(C)cc(OCC(O)CNC(C)C)c(C)c1C (stereo not drawn) , report its measured drug sensitivity score.
Solution: 0

###

Catalogue of cell viability values
- Test system: Vero E6
- PROCEDURE SUMMARY: cell viability relative to DMSO; higher = less toxic
- MEASUREMENT PARAMETERS: 72 h; 1000 nM
Structures can show the parent of a compound that is named as a salt.
Your answer should be a plain number; it is taken to be in %.

Solved entries:
> print(dat)
                                   molecule  tested.system  property.measured  numeric.value
1  Cc1ncc(-c2ccnc(Nc3ccc(S(C)(=O)=O)cc3)n2)n1C(C)C        Vero E6     cell viability           91.6
2  FC(F)(F)C(F)(F)C(F)(F)C(F)(F)C(F)(F)C(F)(F)C(F)(F)C(F)(F)Br        Vero E6     cell viability           92.4
3    CC1=NN=C(c2ccc(N)cc2)c2cc3c(cc2C1)OCO3        Vero E6     cell viability            104

Problem: Lookup: cell viability / Vero E6 / Cc1ccc(S(=O)(=O)n2c(N)nc3ccccc32)cc1
Solution: 109

Problem: Record lookup: for Vero E6, what cell viability belongs to O=C(CN1C2=NCCN2c2ccccc21)c1ccc(-c2ccccc2)cc1 ?
Solution: 95.4

Problem: Request: cell viability, test system Vero E6, entry N=c1ccn2c(n1)O[C@H]1[C@H](O)[C@@H](CO)O[C@H]12 [Cyclocytidine HCl]
Solution: 87.4

Problem: Request: cell viability, test system Vero E6, entry O=C(NCCS(=O)(=O)c1ccc(C(F)(F)F)cn1)c1ccc(Cl)cc1
Solution: 89.9

Problem: Give recorded cell viability with Vero E6 for the following molecule: N#Cc1c[nH]c2c(C(=O)N3CCN(CCc4ccc(F)cc4)CC3)cccc12
Solution: 95.2

Problem: Recall the recorded cell viability for OB1OCc2cc(Cl)ccc21 with Vero E6 and state it.
Solution: 96.9

Problem: Missing value: cell viability, Vero E6, entry CCCCOc1cc(CC2CNC(=O)N2)ccc1OC (stereo not given) . Fill in?
Solution: 95.1

###

- Tested on: A549-ACE2 infected with SARS-CoV-2
- PROCEDURE SUMMARY: morphology score (similarity to uninfected cells); higher = more like uninfected cells
- MEASUREMENT PARAMETERS: 0.3 µM; 24 h
# cutoff -0.02 applies to morphology score; >= gives class 1, < gives class 0

> print(dat)
                                   compound  class.assignment
1  Clc1ccccc1CNC[C@H]1CC[C@H](CNCc2ccccc2Cl)CC1 [AY-9944]           class 1
2  CCCC[C@@H](C=O)NC(=O)[C@H](CC(C)C)NC(=O)OCc1ccccc1 [calpeptin]           class 1
3  c1ccc2c(CCNc3ccc(Nc4ccncc4)cc3)c[nH]c2c1 [serdemetan]           class 0
4  FC(F)(F)c1cc(CO[C@H]2CCCN[C@H]2c2ccccc2)cc(C(F)(F)F)c1           class 1

Now look at this entry.
Problem: Check this compound for morphology score at or above -0.02: N=C(NCCCCCCNC(=N)NC(=N)Nc1ccc(Cl)cc1)NC(=N)Nc1ccc(Cl)cc1 [chlorhexidine]
Solution: class 1

###

- System: Caco-2
- PROCEDURE SUMMARY: drug sensitivity score (DSS) for viability; higher = more toxic; extreme values may be limits of the assay
- MEASUREMENT PARAMETERS: 72 h
Form field: drug sensitivity score (one value per entry).
Output: the number by itself.

Some entries whose results are on file:
COMPOUND	TESTED SYSTEM	drug sensitivity score
NCC(O)c1ccc(O)cc1 (stereo not given)	Caco-2	0.1
NC(=O)c1ccc2[nH]ccc2c1	Caco-2	0
CC[C@H](CC[C@@H](C)[C@H]1CC[C@H]2[C@@H]3CC=C4C[C@@H](O[C@@H]5O[C@H](CO)[C@@H](O)[C@H](O)[C@H]5O)CC[C@]4(C)[C@H]3CC[C@]12C)C(C)C	Caco-2	0
c1ccc(-c2nc(CN3CCN(c4ncccn4)CC3)c[nH]2)cc1	Caco-2	0
CC(C)[C@@H](C)/C=C/[C@@H](C)[C@H]1CC[C@H]2/C(=C/C=C3\C[C@@H](O)CC[C@@H]3C)CCC[C@]12C [dihydrotachysterol]	Caco-2	0
Cc1cc(/C=C/C#N)cc(C)c1Nc1ccnc(Nc2ccc(C#N)cc2)n1	Caco-2	3.1
Cn1cc(C2=C(c3cn(CCCSC(=N)N)c4ccccc34)C(=O)NC2=O)c2ccccc21 [bisindolylmaleimide-IX]	Caco-2	4.9
CCc1cc2c(cc1N1CCC(N3CCOCC3)CC1)C(C)(C)c1[nH]c3cc(C#N)ccc3c1C2=O	Caco-2	0
CCCCCNC(=N)N/N=C/c1c[nH]c2ccc(OC)cc12	Caco-2	0
Cn1cnc2c(NCc3ccccc3)nc(NCCO)nc21	Caco-2	0

Problem: Lab note: need drug sensitivity score for O=C(O)CCc1cc(C(=O)c2ccc(OC3CCCC3)cc2O)ccc1OCc1ccc2c(O)noc2c1 on Caco-2, anyone have it?
Solution: 0

Problem: Param readout= drug sensitivity score; system= Caco-2; entry= CC(=O)Oc1c(C)cc(OCC(O)CNC(C)C)c(C)c1C (stereo not given) ; returns value.
Solution: 1.3

###

- Test system: Calu-3
- PROCEDURE SUMMARY: cell viability relative to DMSO; higher = less toxic
- MEASUREMENT PARAMETERS: 72 h; 10000 nM
PROPERTY MEASURED: cell viability (%)
Value expressed in %; do not type the unit.

// solved cases for cell viability follow
COMPOUND	cell viability (%)
CN(NC(=O)CC(=O)NN(C)C(=S)c1ccccc1)C(=S)c1ccccc1	99.4
CN(C)CCn1cc(S(=O)(=O)c2cccc(F)c2)c2cccnc21	95.3
OB1OCc2cc(Cl)ccc21	92.8
COc1ccccc1C(=O)Nc1cc2c(cc1N1CCCC1)n(C)c(=O)n2C	98
Cc1cnc(CNC(=O)c2c(=O)c3ccc(N4CCCN(C)CC4)nc3n3c2sc2ccccc23)cn1	84

Problem: What measured cell viability goes with CO[C@H]1O[C@@H]2O[C@@]3(C)CC[C@H]4[C@H](C)CC[C@@H]([C@H]1C)[C@@]24OO3 ?
Solution: 96.5

Problem: Would you mind telling me what cell viability value was observed for O=c1[nH]ccc2cc(OC3CCNCC3)ccc12 ?
Solution: 130

Problem: Need cell viability, item CC(C)(C)c1ccc(CN2CCN(C(c3ccccc3)c3ccc(Cl)cc3)CC2)cc1 (configuration not stated)
Solution: 92.1

Problem: What value of measured cell viability is listed for O=C(O)c1cc(=O)c2ccccc2[nH]1 ?
Solution: 104

###

- Tested on: Caco-2
- PROCEDURE SUMMARY: cell viability relative to DMSO; higher = less toxic
- MEASUREMENT PARAMETERS: 72 h; 10000 nM
Structures can show the parent of a compound that is named as a salt.
PROPERTY MEASURED: cell viability
# output: number + unit

> print(dat)
                                   compound  tested.system  property.measured  result
1  COc1ccc(CCNCc2ccc(OCc3ccc(Cl)nc3)c(OC)c2)cc1OC         Caco-2     cell viability   95.3%

Problem: Which value of cell viability has been reported for CCc1cc2c(cc1N1CCC(N3CCOCC3)CC1)C(C)(C)c1[nH]c3cc(C#N)ccc3c1C2=O in the records?
Solution: 106%

Problem: I'd like to know its cell viability. The compound in question is CC(C)(C)NCC(O)CSc1nc(-c2ccc(C(N)=O)s2)cs1 (centres undefined)
Solution: 107%

Problem: Quick one: cell viability of COc1cc(N)c(Cl)cc1C(=O)NC1CN2CCC1CC2 (centres undefined) [zacopride] ?
Solution: 110%

Problem: Quick one: cell viability for N=c1ccn2c(n1)O[C@H]1[C@H](O)[C@@H](CO)O[C@H]12 [Cyclocytidine HCl] ?
Solution: 77.8%

Problem: For the compound shown here, CC1=NN=C(c2ccc(N)cc2)c2cc3c(cc2C1)OCO3 , give the reported cell viability.
Solution: 81%

Problem: Entry COc1cc(N2CCC(N3CCN(C)CC3)CC2)ccc1Nc1ncnc(Nc2ccccc2S(=O)(=O)C(C)C)n1 has what cell viability?
Solution: 68.6%

Problem: Please give the measured cell viability for this compound: CO[C@H]1O[C@@H]2O[C@@]3(C)CC[C@H]4[C@H](C)CC[C@@H]([C@H]1C)[C@@]24OO3
Solution: 86.2%

Problem: // lookup cell viability for CC(C)(C)OC(=O)c1ncn2c1[C@@H]1CCCN1C(=O)c1c(Br)cccc1-2
Solution: 100%
